Tested on: L02
Assay: Cytotoxicity against human LO2 cells assessed as reduction in cell viability after 24 hrs by CCK8 assay
Type: cell-based
Details: L02, 24 h
pIC50: −log10 of the molar value. *1 amine or outer side, *2 acyl side, *3 side chain or, on linkers, in order; H or OH if unused. Where a SMILES comes first, the peptide text is derived from it. [ ]: non-standard residue; d: D form. Trp(1-(1,1-Me2-allyl)) = C=CC(C)(C)n1cc(C[C@H](N)C(=O)O)c2ccccc21; Tyr(3-NO2) = N[C@@H](Cc1ccc(O)c([N+](=O)[O-])c1)C(=O)O; X1 = CN([C@@H](C[C@@](C)(O)CO)C(=O)[*:2])[*:1]; X3 = CN([C@@H](CC(CO)CO)C(=O)[*:2])[*:1]; Gly(E-crotyl) = C/C=C/C[C@H](N)C(=O)O; NMeL = CN[C@@H](CC(C)C)C(=O)O
pIC50 values by entry

{"columns": ["molecule", "pIC50"],
 "data": [
  ["C=CC(C)(C)n1cc(C[C@@H]2NC(=O)[C@H](C/C=C/C)NC(=O)[C@H](CC(C)C)NC(=O)[C@H](CC(CO)CO)N(C)C(=O)[C@H](C)NC(=O)[C@H](Cc3ccc(O)c([N+](=O)[O-])c3)NC(=O)[C@H](CC(C)C)N(C)C2=O)c2ccccc21 (cyclo(A[X3]L[Gly(E-crotyl)][Trp(1-(1,1-Me2-allyl))][NMeL][Tyr(3-NO2)]))", "< 4.30"]
]}

Task: // fetch pIC50 for C=CC(C)(C)n1cc(C[C@@H]2NC(=O)[C@H](C/C=C/C)NC(=O)[C@H](CC(C)C)N3C(=O)[C@H](C[C@H](C)[C@H]3O)N(C)C(=O)[C@H](C)NC(=O)[C@H](Cc3ccc(O)c([N+](=O)[O-])c3)NC(=O)[C@H](CC(C)C)N(C)C2=O)c2ccccc21 ; system: L02
Output: 5.00

Task: Report pIC50 from L02 testing of C=CC(C)(C)n1cc(C[C@@H]2NC(=O)[C@H](C/C=C/C)NC(=O)[C@H](CC(C)C)NC(=O)[C@H](C[C@@](C)(O)CO)N(C)C(=O)[C@H](C)NC(=O)[C@H](Cc3ccc(O)c([N+](=O)[O-])c3)NC(=O)[C@H](CC(C)C)N(C)C2=O)c2ccccc21 (cyclo(A[X1]L[Gly(E-crotyl)][Trp(1-(1,1-Me2-allyl))][NMeL][Tyr(3-NO2)]))
Output: < 4.30
